Ref: the array DNA melting data of Ke et al. (doi:10.1101/2024.01.08.574731)

Overview of recorded Tm for various sequences
test: melting temperature; fluorescence melt of hairpins on a sequencing array, two-state fit, raised by 9.35 °C to match UV melts; conditions: sodium 0.088 M
Only the number, expressed in °C, is required.

macromolecule_sequence: GACCTTGGAAACAAGGTC (((((((....)))))))
measured_quantity: Tm
numeric_value: 63
--
macromolecule_sequence: GGAGGTGGAAACATCTCC ((((.((....)).))))
measured_quantity: Tm
numeric_value: 49.1
--
macromolecule_sequence: GCGGACGACCGC ((((....))))
measured_quantity: Tm
numeric_value: 53.8
--
macromolecule_sequence: GACGCCGAAAGGCCGGTC ((((((....)))..)))
measured_quantity: Tm
numeric_value: 42.6
--
macromolecule_sequence: GCGATGATTCGC ((((....))))
measured_quantity: Tm
numeric_value: 50.9

Would you kindly share the measured Tm for GCGGTCGACCGC ((((....)))) ?
67.7

Record: GATTCCCCGAAAGGGATC (((..(((....))))))
29.2

Subsequent entry: GTACGCGGAAACGCACAC ((..(((....)))..))
33.1

And GTGGCCGGAAACAGCCAC (((((.(....).))))) ?
54.5

Could you do the same for GTTGGCCGAAAGGCAAC (((.(((....)))))) , please?
53.9
